Experiment: NCI Yeast Anticancer Drug Screen. Data for the cln2 rad14 strain (AID 165);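 note: 0% = growth equal to vehicle treated cultures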
Details: S. cerevisiae cln2 rad14 strain, at 50.0 µM (retest, dose inferred, filed as 5.0)
Compounds without any hit were thinned out: in the full panel of roughly 79,000, 15% have a hit. Calls of active or inactive are those of the source. Cut-off read from the data, not from the text of the source: active = growth inhibition above about 70%; inactive = the rest.
Outcome codes: y for active, n for inactive

{"MOLECULE": "C/C(=N\\NC(=O)C[n+]1ccccc1)c1sc(-c2nc(C)c(/C(C)=N/NC(=O)C[n+]3ccccc3)s2)nc1C", "GROUP LABEL": "y"}
{"MOLECULE": "CCCC/C=C1\\CCC(CN2CCCCC2)C1=O (stereo not given)", "GROUP LABEL": "y"}
{"MOLECULE": "CN(C)/C(N)=N\\c1nc2ccc(Cl)cc2s1", "GROUP LABEL": "n"}
{"MOLECULE": "COc1ccc(C2=C(Cl)C(=O)N(c3ccccc3Cl)C(=O)C2(Cl)Cl)cc1", "GROUP LABEL": "y"}
{"MOLECULE": "COc1ccc(C)c2nc3ccccc3nc12", "GROUP LABEL": "n"}
{"MOLECULE": "CC(C)(C)OC(=O)CSC#N", "GROUP LABEL": "n"}
{"MOLECULE": "N#CCc1ccc2c(c1)Sc1ccccc1O2", "GROUP LABEL": "n"}
{"MOLECULE": "CCNc1cc(N)[n+](CC)c2n[nH]c(/N=C/c3cc(Cl)cc(Cl)c3O)c12", "GROUP LABEL": "y"}
{"MOLECULE": "COc1ccc(Cc2cncc3c(O)c(OC)ccc23)cc1O", "GROUP LABEL": "n"}
{"MOLECULE": "CN1C=C(C#N)CCC1Sc1ccc(Cl)cc1 (stereo not given)", "GROUP LABEL": "n"}
{"MOLECULE": "Cc1nn(C(=O)c2ccccc2O)c2c1C(c1ccco1)SC(N)=N2 (stereo not given)", "GROUP LABEL": "n"}
{"MOLECULE": "NC(=S)Nc1c(Br)cc(Br)cc1Br", "GROUP LABEL": "y"}
{"MOLECULE": "CC1(c2ccc(Cl)cc2)OC(=O)c2c1ccc1ccccc21 (stereo not given)", "GROUP LABEL": "n"}
{"MOLECULE": "C/C(=N\\Oc1ncc([N+](=O)[O-])c(O/N=C(\\C)c2ccccc2)n1)c1ccccc1", "GROUP LABEL": "n"}
{"MOLECULE": "ClC(Cl)(Cl)C(c1ccccc1)c1ccccc1", "GROUP LABEL": "n"}
{"MOLECULE": "Nc1ccc2c(c1)S(=O)(=O)c1cc(O)ccc1O2", "GROUP LABEL": "n"}
{"MOLECULE": "Cc1ccc(S(=O)(=O)/C=C/C(=O)c2ccc3ccccc3c2)cc1", "GROUP LABEL": "y"}
{"MOLECULE": "CC(=O)N(C)C1=C(Sc2ccc(C)cc2)C(=O)c2ccccc2C1=O", "GROUP LABEL": "y"}
{"MOLECULE": "O=C(Cc1ccccc1)NC(C(=O)c1ccccc1)c1ccccc1 (stereo not given)", "GROUP LABEL": "n"}
{"MOLECULE": "Cc1ccc(C(=O)C(F)(F)F)cc1", "GROUP LABEL": "n"}
{"MOLECULE": "O[Si](O)(c1ccccc1)c1ccccc1", "GROUP LABEL": "y"}
{"MOLECULE": "Cn1c(=O)[nH]c2nnc(-c3ccccc3)nc2c1=O", "GROUP LABEL": "y"}
{"MOLECULE": "CCCC/C=C(/CCCNCCc1ccccc1)[Si](C)(C)C", "GROUP LABEL": "y"}
{"MOLECULE": "CCC(N)(CO)CO", "GROUP LABEL": "n"}
{"MOLECULE": "CCN(CC)Cc1cc(Nc2c3ccccc3nc3c2[nH]c2ccccc23)ccc1O", "GROUP LABEL": "n"}

---

Assay: NCI Yeast Anticancer Drug Screen. Data for the sgs1 mgt1 strain (AID 161);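 note: 0% = growth of cultures given vehicle only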
Settings: S. cerevisiae sgs1 mgt1 strain, at 5.0 µM (retest, dose inferred, filed as 0.5), active compounds read high
This is part of a sample that, as a whole, favours compounds with a hit. Of some 79,000 tested, about 15% had one in any assay.
This section presents compounds with their documented growth inhibition values.
MEASURED PROPERTY: growth inhibition (%)

{"COMPOUND": "c1cc[c]([Sn]([S]c2ccccn2)([c]2ccccc2)[c]2ccccc2)cc1", "MEASURED PROPERTY": "growth inhibition", "EXPERIMENTAL RESULT": 99}
{"COMPOUND": "O=C1O/C(=C(/Cl)c2c3ccccc3cc3ccccc23)c2ccccc21", "MEASURED PROPERTY": "growth inhibition", "EXPERIMENTAL RESULT": -15}
{"COMPOUND": "O=C1OC(C2OC(=O)C(=O)C2C(=O)c2ccc(Cl)c(Cl)c2)C(C(=O)c2ccc(Cl)c(Cl)c2)C1=O (centres undefined)", "MEASURED PROPERTY": "growth inhibition", "EXPERIMENTAL RESULT": 14}
{"COMPOUND": "COc1ccc(C2c3cn[nH]c3CC3CCCCC32)cc1 (centres undefined)", "MEASURED PROPERTY": "growth inhibition", "EXPERIMENTAL RESULT": 9}
{"COMPOUND": "CCc1ccc(/C=C/c2ccc([N+](=O)[O-])cc2)nc1", "MEASURED PROPERTY": "growth inhibition", "EXPERIMENTAL RESULT": -5}
{"COMPOUND": "O=C1C(=O)N(c2ccccc2)N=C1N=Nc1ccccc1", "MEASURED PROPERTY": "growth inhibition", "EXPERIMENTAL RESULT": 14}
{"COMPOUND": "Cc1cc(=O)n(C)c2c(C)cccc12", "MEASURED PROPERTY": "growth inhibition", "EXPERIMENTAL RESULT": -60}
{"COMPOUND": "O=C(O)/C=C/CCC1SCC2NC(=O)NC21 (centres undefined)", "MEASURED PROPERTY": "growth inhibition", "EXPERIMENTAL RESULT": 96}
{"COMPOUND": "CCOC(=O)C1=C(C)NC2=C(C(=O)N(c3ccccc3)C2c2ccccc2)C1c1ccccc1 (centres undefined)", "MEASURED PROPERTY": "growth inhibition", "EXPERIMENTAL RESULT": 3}
{"COMPOUND": "CCn1c2ccc([N+](=O)[O-])cc2c2c([N+](=O)[O-])c(-n3cccc3)ccc21", "MEASURED PROPERTY": "growth inhibition", "EXPERIMENTAL RESULT": 5}
{"COMPOUND": "OC(C/C=N/Nc1ccccc1)(C(F)(F)Cl)C(F)(F)Cl", "MEASURED PROPERTY": "growth inhibition", "EXPERIMENTAL RESULT": -10}
{"COMPOUND": "CCCCC(Cc1ccccc1)(C(=O)O)c1ccccc1 (centres undefined)", "MEASURED PROPERTY": "growth inhibition", "EXPERIMENTAL RESULT": 16}
{"COMPOUND": "O=S(=O)(N/N=C/c1ccc(Cl)cc1Cl)c1ccccc1", "MEASURED PROPERTY": "growth inhibition", "EXPERIMENTAL RESULT": 10}
{"COMPOUND": "CN(C)c1ccc(C(O)(Cc2cccnc2)c2ccc(N(C)C)cc2)cc1", "MEASURED PROPERTY": "growth inhibition", "EXPERIMENTAL RESULT": -2}
{"COMPOUND": "CCOC(=O)c1cc(C)c(O)c(C(=O)OCC)c1", "MEASURED PROPERTY": "growth inhibition", "EXPERIMENTAL RESULT": 1}
{"COMPOUND": "CC/C(C)=C1\\CCC(CN2CCOCC2)C1=O (centres undefined)", "MEASURED PROPERTY": "growth inhibition", "EXPERIMENTAL RESULT": 24}
{"COMPOUND": "Cn1c(=O)c2c3oc(=O)cc(O)c3c(=O)n3c4ccccc4n(c1=O)c23", "MEASURED PROPERTY": "growth inhibition", "EXPERIMENTAL RESULT": 35}
{"COMPOUND": "CCN(CC)c1ccc(Cl)c2c1C(O)(C(C)C)C2(C)C (centres undefined)", "MEASURED PROPERTY": "growth inhibition", "EXPERIMENTAL RESULT": 1}
{"COMPOUND": "CCCC1c2ccc(O)cc2CC1c1ccc(O)cc1 (centres undefined)", "MEASURED PROPERTY": "growth inhibition", "EXPERIMENTAL RESULT": -3}
{"COMPOUND": "OC(Cc1ccc(Br)cc1)CN1CCC(c2ccccc2)CC1 (centres undefined)", "MEASURED PROPERTY": "growth inhibition", "EXPERIMENTAL RESULT": 97}
{"COMPOUND": "Cc1cccc2c(CC(=O)O)c[nH]c12", "MEASURED PROPERTY": "growth inhibition", "EXPERIMENTAL RESULT": 67}
{"COMPOUND": "N#CSCC(=O)c1ccccc1", "MEASURED PROPERTY": "growth inhibition", "EXPERIMENTAL RESULT": 95}
{"COMPOUND": "O=NN(CCCl)C(=O)Nc1cc(Cl)ccc1O", "MEASURED PROPERTY": "growth inhibition", "EXPERIMENTAL RESULT": -5}
{"COMPOUND": "C=CCOc1ccc(/C=N/NC(N)=S)cc1", "MEASURED PROPERTY": "growth inhibition", "EXPERIMENTAL RESULT": 15}
{"COMPOUND": "O=CC(O)CN1CCCC1 (centres undefined)", "MEASURED PROPERTY": "growth inhibition", "EXPERIMENTAL RESULT": 2}
{"COMPOUND": "O=C(O)CCCCCCC(=O)CCl", "MEASURED PROPERTY": "growth inhibition", "EXPERIMENTAL RESULT": 24}
{"COMPOUND": "CC1=C(c2ccccc2)C(=O)OC1=O", "MEASURED PROPERTY": "growth inhibition", "EXPERIMENTAL RESULT": 4}
{"COMPOUND": "O=C(CBr)C1(Br)CCN(Cc2ccccc2)CC1", "MEASURED PROPERTY": "growth inhibition", "EXPERIMENTAL RESULT": 22}
{"COMPOUND": "C(=NCCc1ccccc1)c1ccccc1B1OB(c2ccccc2C=NCCc2ccccc2)OB(c2ccccc2C=NCCc2ccccc2)O1", "MEASURED PROPERTY": "growth inhibition", "EXPERIMENTAL RESULT": 90}
{"COMPOUND": "Cc1ccc(N2CCN(c3c(N)cncc3Br)CC2)cc1", "MEASURED PROPERTY": "growth inhibition", "EXPERIMENTAL RESULT": 0}
{"COMPOUND": "Cc1cc(C(=O)c2ccccc2)ccc1O", "MEASURED PROPERTY": "growth inhibition", "EXPERIMENTAL RESULT": 3}
{"COMPOUND": "COc1ccc(/C(=C/CN2CCC3CCC(C3)C2)c2ccccc2)cc1 (centres undefined)", "MEASURED PROPERTY": "growth inhibition", "EXPERIMENTAL RESULT": -31}
{"COMPOUND": "[O-][n+]1ccc(Br)c(/C=C/c2ccccc2)c1", "MEASURED PROPERTY": "growth inhibition", "EXPERIMENTAL RESULT": -2}
{"COMPOUND": "CN(C)c1ccc(C=Nc2cnc3ccccc3c2)cc1", "MEASURED PROPERTY": "growth inhibition", "EXPERIMENTAL RESULT": -4}
{"COMPOUND": "Cc1csc(N)[n+]1CCC(=O)[O-]", "MEASURED PROPERTY": "growth inhibition", "EXPERIMENTAL RESULT": -1}
{"COMPOUND": "CCOC(=O)/C(=C\\c1ccc(Cl)cc1)C(C)=O", "MEASURED PROPERTY": "growth inhibition", "EXPERIMENTAL RESULT": 33}
{"COMPOUND": "O=C(O)c1ccccc1/C=N/O", "MEASURED PROPERTY": "growth inhibition", "EXPERIMENTAL RESULT": 0}
{"COMPOUND": "Cc1ccc(OCC2CO2)c(Br)c1 (centres undefined)", "MEASURED PROPERTY": "growth inhibition", "EXPERIMENTAL RESULT": 15}
{"COMPOUND": "COc1ccc(CC2=CC(=O)C(=O)C=C2C)cc1", "MEASURED PROPERTY": "growth inhibition", "EXPERIMENTAL RESULT": 9}
{"COMPOUND": "C/C(=N\\Oc1ncc([N+](=O)[O-])c(O/N=C(\\C)c2ccccc2)n1)c1ccccc1", "MEASURED PROPERTY": "growth inhibition", "EXPERIMENTAL RESULT": 53}
{"COMPOUND": "Cc1cc(C)c(CCCC(=O)c2c(C)cc(C)cc2C)c(C)c1", "MEASURED PROPERTY": "growth inhibition", "EXPERIMENTAL RESULT": -7}
{"COMPOUND": "COC1=C(OC)C(=O)C(SCc2ccco2)=CC1=O", "MEASURED PROPERTY": "growth inhibition", "EXPERIMENTAL RESULT": 53}
{"COMPOUND": "COc1ccc(C2=C(Cl)C(=O)N(c3ccc(Cl)cc3)C(=O)C2(Cl)Cl)cc1", "MEASURED PROPERTY": "growth inhibition", "EXPERIMENTAL RESULT": 13}
{"COMPOUND": "FC(F)(F)c1[nH]nc(-c2ccc(Cl)cc2)c1N=NN1CCOCC1", "MEASURED PROPERTY": "growth inhibition", "EXPERIMENTAL RESULT": 99}
{"COMPOUND": "NC(=O)NNC(=O)NNC(N)=O", "MEASURED PROPERTY": "growth inhibition", "EXPERIMENTAL RESULT": 3}
{"COMPOUND": "O=C(C1=Cc2ccccc2OC1)N1CCN(c2cccc(Cl)c2)CC1", "MEASURED PROPERTY": "growth inhibition", "EXPERIMENTAL RESULT": 1}
{"COMPOUND": "Oc1ccc(C2CCCCC2)c(O)c1", "MEASURED PROPERTY": "growth inhibition", "EXPERIMENTAL RESULT": 7}
{"COMPOUND": "CCn1c2ccccc2c2ccc(N=Nc3ccc(N(C)C)cc3)cc21", "MEASURED PROPERTY": "growth inhibition", "EXPERIMENTAL RESULT": 6}
{"COMPOUND": "COc1ccc2c(c1)[n+]([O-])c(S(=O)(=O)c1ccc(C)cc1)c(N)[n+]2[O-]", "MEASURED PROPERTY": "growth inhibition", "EXPERIMENTAL RESULT": 35}
